Sourced from patent US9512139B2

Biological target: Prostaglandin F (FP) Receptor (Homo sapiens)
Construct: host or cells: Ca2+ optimized hematopoietic cell lines (rat)
Sequence (P43088 whole entry): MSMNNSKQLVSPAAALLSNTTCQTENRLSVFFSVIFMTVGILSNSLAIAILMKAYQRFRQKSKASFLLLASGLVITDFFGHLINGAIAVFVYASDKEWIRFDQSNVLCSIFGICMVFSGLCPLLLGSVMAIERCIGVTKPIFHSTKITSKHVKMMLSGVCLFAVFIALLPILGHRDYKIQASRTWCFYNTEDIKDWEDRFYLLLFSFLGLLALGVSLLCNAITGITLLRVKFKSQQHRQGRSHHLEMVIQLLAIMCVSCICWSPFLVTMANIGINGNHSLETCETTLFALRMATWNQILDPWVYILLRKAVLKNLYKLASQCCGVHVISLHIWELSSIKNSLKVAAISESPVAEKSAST
Experiment: Ca2+ assay (FLIPR) for the GPCR prostaglandin F (FP) receptor, agonist and antagonist mode
Format: cell-based
Settings: 10 μM
measured.metric: inhibition at 10 µM (%)

A: CCCCCCCCCC(=O)N[C@H]1CCCN(C)C(=O)c2cccc(c2)OC[C@@H]2C[C@H](NC(=O)CCc3ccccc3)CN2C1=O [Ex. 509]
B: CN1CCC[C@H](NC(=O)Cc2ccc(-c3ccccc3)cc2)C(=O)N2C[C@@H](NC(=O)Cc3ccc4ccccc4c3)C[C@H]2COc2cccc(c2)C1=O [Ex. 522]
C: CCCCCCCCCC(=O)N[C@H]1CCCN(C)C(=O)c2cccc(c2)OC[C@@H]2C[C@H](NC(=O)Cc3cccc(Oc4ccccc4)c3)CN2C1=O [Ex. 515]
-- ask Please give the order of these compounds when sorted by inhibition at 10 µM, largest value leading. Dear reader, please state the labels in the requested order.
-- reply B, A, C

1: CN1CCC[C@H](NC(=O)Cc2ccc3ccccc3c2)C(=O)N2C[C@@H](NC(=O)Nc3cccc(F)c3)C[C@H]2COc2cccc(c2)C1=O [Ex. 537]
2: CN1CCC[C@H](NC(=O)Cc2ccc3ccccc3c2)C(=O)N2C[C@@H](NC(=O)Cc3ccc4cccnc4c3)C[C@H]2COc2cccc(c2)C1=O [Ex. 540]
-- ask Higher inhibition at 10 µM between 1 and 2 ? // respond with label for picked entry
-- reply 1
(1: 75%, 2: 43%)

A: Cc1cccc(NC(=O)N[C@H]2CCCN(C)C(=O)c3cccc(c3)OC[C@@H]3C[C@H](NC(=O)Cc4ccc5ccccc5c4)CN3C2=O)c1 [Ex. 506]
B: CN1CCC[C@H](NC(=O)Cc2ccc3ccccc3c2)C(=O)N2C[C@@H](NC(=O)Nc3ccc(N(C)C)cc3)C[C@H]2COc2cccc(c2)C1=O [Ex. 538]
-- ask Two entries are listed, A and B . Which one carries the higher inhibition at 10 µM? Bench note: the answer is the label of the chosen record.
-- reply B

a: CN1CCC[C@H](NC(=O)OCc2ccccc2)C(=O)N2C[C@@H](NC(=O)Cc3ccc4ccccc4c3)C[C@H]2COc2cccc(c2)C1=O [Ex. 184]
b: CCCCCCCCCC(=O)N[C@H]1CCCN(C)C(=O)c2cccc(c2)OC[C@@H]2C[C@H](NC(=O)c3cccc(N4CCOCC4)c3)CN2C1=O [Ex. 510]
-- ask Exercise: compare a and b ; which one has the greater inhibition at 10 µM? API: response body contains the label of the selected item.
-- reply a
(a: 74%, b: 42%)

---

Target: Motilin Receptor (Homo sapiens, UniProt O43193)
Construct: host or cells: Ca2+ optimized hematopoietic cell lines (rat)
Sequence (O43193 whole entry, species assumed): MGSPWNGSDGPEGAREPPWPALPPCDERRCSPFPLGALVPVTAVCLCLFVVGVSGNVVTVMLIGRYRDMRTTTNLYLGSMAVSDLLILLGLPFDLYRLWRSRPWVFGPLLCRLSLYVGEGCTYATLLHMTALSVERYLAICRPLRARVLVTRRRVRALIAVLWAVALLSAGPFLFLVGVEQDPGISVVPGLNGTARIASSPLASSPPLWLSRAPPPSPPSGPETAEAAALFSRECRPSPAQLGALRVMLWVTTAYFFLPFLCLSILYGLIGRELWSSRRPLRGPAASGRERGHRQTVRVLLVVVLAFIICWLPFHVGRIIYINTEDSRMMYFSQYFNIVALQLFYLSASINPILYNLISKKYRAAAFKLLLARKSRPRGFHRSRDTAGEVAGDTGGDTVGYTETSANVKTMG
Experiment: Ca2+ assay (FLIPR) for the GPCR motilin receptor, agonist and antagonist mode
Format: cell-based
Conditions: antagonist mode, at 10 μM
measured.metric: inhibition at 10 µM (%)

Worked examples follow.
[[record]]
compound = "CN(C)CCNC(=O)[C@@H]1CCC(=O)N(C)CC(=O)N2C[C@@H](NC(=O)Nc3cccc4ccccc34)C[C@H]2COc2ccc(F)cc2C(=O)N1C"
target_of_assay = "Motilin Receptor (Homo sapiens, UniProt O43193)"
numeric_readout = 62

[[record]]
compound = "CN1CC(=O)N2CC(NC(=O)Cc3cccc4ccccc34)CC2COc2ccc(F)cc2C(=O)N(C)C(C(=O)NCCNc2ccccn2)CCC1=O (stereo not shown)"
target_of_assay = "Motilin Receptor (Homo sapiens, UniProt O43193)"
numeric_readout = 93


I: CN(C)CCNC(=O)[C@@H]1CCC(=O)N(C)CC(=O)N2C[C@@H](NCCc3cccc4ccccc34)C[C@H]2COc2ccc(F)cc2C(=O)N1C
II: CN(C)CCNC(=O)[C@@H]1CCC(=O)N(C)CC(=O)N2C[C@@H](NC(=O)Cc3ccc4ccccc4c3)C[C@H]2COc2ccc(F)cc2C(=O)N1C
-- ask Identify the entry with the larger inhibition at 10 µM. Options: I and II API: response body contains the label of the selected item.
-- reply I

---

Assay: in vitro
Assay type: in vitro ADME, human
Conditions: human, plasma
measured.metric: half-life at 10 µM (h)

a: COCCNC(=O)[C@@H]1COCC(=O)N2C[C@@H](N3CCN(Cc4ccccc4)CC3)C[C@H]2COc2cccc(c2)C(=O)N1C [Ex. 378]
b: CN1CCC[C@H](NS(=O)(=O)c2ccc(-c3ccccc3)cc2)C(=O)N2C[C@@H](NC(=O)Cc3ccc4ccccc4c3)C[C@H]2COc2cccc(c2)C1=O [Ex. 527]
-- ask For the two items a and b , which reports the higher half-life at 10 µM value? # reply format: chosen label
-- reply a

---

Test: Metabolic stability assay, human microsomes
Assay type: in vitro ADME
Details: both sexes, human, microsomes
measured.metric: half-life at 10 µM (min)

[[record]]
compound = "CNC(=O)[C@H]1CCC(=O)N(C)CC(=O)N2C[C@@H](NC(=O)Cc3ccc4ccccc4c3)C[C@H]2COc2ccc(F)cc2C(=O)N1C [Ex. 93]"
numeric_readout = 24


P: CN(C)CCNC(=O)[C@@H]1CCC(=O)N(C)CC(=O)N2C[C@@H](NC(=O)Cc3cccc4ccccc34)C[C@H]2COc2ccc(F)cc2C(=O)N1C [Ex. 49]
Q: CC(C)CN1C[C@H]2C[C@H]1COc1ccc(F)cc1C(=O)N(C)CCC[C@H](NC(=O)Cc1ccccc1)C(=O)N2 [Ex. 407]
-- ask # compare half-life at 10 µM for P vs Q ; return the one with the smaller value Provide the label of your selected option as the answer.
-- reply P

---

Assay: Metabolic stability assay, CD-1 mouse microsomes
Format: in vitro ADME
Conditions: both, CD-1, mouse, microsomes, 1 h, 10 µM
measured.metric: Metabolic Stability 60 min mouse [% remain.] (% remain.)

Below, each entry is followed by its recorded Metabolic Stability 60 min mouse [% remain.] result.
[[record]]
compound_smiles = "CN1CCC[C@H](NS(=O)(=O)c2ccc(-c3ccccc3)cc2)C(=O)N2C[C@@H](NC(=O)Cc3ccc4ccccc4c3)C[C@H]2COc2cccc(c2)C1=O"
result_unit = "% remain."
numeric_readout = 24

[[record]]
compound_smiles = "CN1CCC[C@H](NC(=O)OCc2ccccc2)C(=O)N[C@@H]2C[C@@H](COc3ccc(F)cc3C1=O)N(C(=O)OC(C)(C)C)C2"
result_unit = "% remain."
numeric_readout = 55


1: CN1CCC[C@H](N)C(=O)N2C[C@@H](OCc3ccc(-c4cncnc4)cc3)C[C@H]2COc2cccc(c2)C1=O
2: CN1CCC[C@H](N)C(=O)N2C[C@@H](OCc3ccc(-c4cccnc4)cc3)C[C@H]2COc2cccc(c2)C1=O
-- ask For the pair 1 and 2 , which entry has the numerically smaller recorded Metabolic Stability 60 min mouse [% remain.]? Identify your selection by its label.
-- reply 1

---

Experiment: in vitro
Assay type: in vitro ADME, mouse
Conditions: both, CD-1, mouse, plasma, 4 h, 10 µM
measured.metric: Plasma Stability 240 min mouse [% remain.] (% remain.)

Below are worked cases with known answers.
[[record]]
molecule = "CN1CCC[C@H](NC(=O)Cc2ccccc2)C(=O)N[C@H]2CN[C@H](COc3ccc(F)cc3C1=O)C2"
result_unit = "% remain."
numeric_readout = 89

[[record]]
molecule = "CN1CCC[C@H](NC(=O)CC(C)(C)C)C(=O)N2C[C@@H](N)C[C@H]2COc2cccc(c2)C1=O"
result_unit = "% remain."
numeric_readout = 100

[[record]]
molecule = "CN1CC(=O)N2CC(NC(=O)Cc3cccc4ccccc34)CC2COc2ccc(F)cc2C(=O)N(C)C(C(=O)NCCNc2ccccn2)CCC1=O (stereo not shown)"
result_unit = "% remain."
numeric_readout = 99

[[record]]
molecule = "CN1CC(=O)N2C[C@@H](NC(=O)OC(C)(C)C)C[C@H]2COc2ccc(F)cc2C(=O)N(C)[C@H](C(=O)NCCc2c[nH]c3ccccc23)CCC1=O"
result_unit = "% remain."
numeric_readout = 100

[[record]]
molecule = "CO[C@H]1C[C@H]2COc3cccc(c3)C(=O)N(C)CCC[C@H](NC(=O)CC(C)(C)C)C(=O)N2C1"
result_unit = "% remain."
numeric_readout = 100


a: CNC(=O)[C@H]1CCC(=O)N(C)CC(=O)N2C[C@@H](NC(=O)Cc3ccc4ccccc4c3)C[C@H]2COc2ccc(F)cc2C(=O)N1C
b: CCCCC(=O)N[C@H]1C[C@H]2COc3cccc(c3)C(=O)N(C)CC[C@H](N)C(=O)N2C1
-- ask Lab note: record which item had the higher Plasma Stability 240 min mouse [% remain.], a or b . State the label of the item chosen.
-- reply a

---

Assay: in vitro
Assay type: in vitro ADME, human
Conditions: human, plasma, 4 h, 10 µM
measured.metric: Plasma Stability 240 min hum [% remain.] (% remain.)

[[record]]
molecule = "CN1CC(=O)N2CC(NC(=O)Cc3cccc4ccccc34)CC2COc2ccc(F)cc2C(=O)N(C)C(C(=O)NCCNc2ccccn2)CCC1=O (stereo not drawn)"
measured_metric = "Plasma Stability 240 min hum [% remain.]"
numeric_readout = 100

[[record]]
molecule = "CN1CC(=O)N2C[C@@H](NC(=O)OC(C)(C)C)C[C@H]2COc2ccc(F)cc2C(=O)N(C)[C@H](C(=O)NCCc2c[nH]c3ccccc23)CCC1=O"
measured_metric = "Plasma Stability 240 min hum [% remain.]"
numeric_readout = 85

[[record]]
molecule = "CN1CC(=O)N2C[C@@H](NC(=O)Cc3cccc4ccccc34)C[C@H]2COc2ccc(F)cc2C(=O)N(C)[C@H](C(=O)NCCN)CCC1=O"
measured_metric = "Plasma Stability 240 min hum [% remain.]"
numeric_readout = 100

[[record]]
molecule = "CN(C)CCNC(=O)[C@@H]1CCC(=O)N(C)CC(=O)N2C[C@@H](NCCc3cccc4ccccc34)C[C@H]2COc2ccc(F)cc2C(=O)N1C"
measured_metric = "Plasma Stability 240 min hum [% remain.]"
numeric_readout = 100

[[record]]
molecule = "CN1CCC[C@H](NCC(C)(C)C)C(=O)N2C[C@@H](Oc3ccccc3)C[C@H]2COc2cccc(c2)C1=O"
measured_metric = "Plasma Stability 240 min hum [% remain.]"
numeric_readout = 88

[[record]]
molecule = "CN1C[C@H](NC(=O)OCc2ccccc2)C(=O)N(C)CC(=O)N2C[C@@H](NC(=O)Cc3c[nH]c4ccccc34)C[C@H]2COc2cccc(c2)C1=O"
measured_metric = "Plasma Stability 240 min hum [% remain.]"
numeric_readout = 91

